Reference source: patent US10770169B2

# Test system: panel of 55 breast cancer cell lines
# test: Cell growth inhibition assay (Cell Titer Glo, 72 h, 9 doses; GI50, TGI, LC50)
# Format: cell-based, human
# experimental conditions: cell line HCC2185; value is the negative log10 of mol/L
test readout: GI50
Answers are plain numbers.

O=c1[nH]c(=O)n([C@H]2C[C@H](O)[C@@H](CO)O2)cc1F; 3.42
Cc1cc(Nc2cc(N3CCN(C)CC3)nc(Sc3ccc(NC(=O)C4CC4)cc3)n2)n[nH]1; 6.46
COc1cc2c(Nc3ccc(NC(=O)c4ccccc4)cc3)ncnc2cc1OCCCN1CCOCC1; 5.92
N#Cc1c(NC(=O)c2cccc3ccccc23)sc2c1CCCC2; 4.66
O=c1[nH]c2ccccc2n1C1CCN(Cc2ccc(-c3nc4cc5[nH]cnc5cc4nc3-c3ccccc3)cc2)CC1; 5.75

Consider the following items and state reported GI50 for each.
1. CCn1cc(-c2ccnc3[nH]c(-c4cccc(CN(C)C)c4)cc23)c(-c2ccc(NC(=O)N(C)C)cc2)n1
2. NS(=O)(=O)c1ccc(Nc2nc(OCC3CCCCC3)c3[nH]cnc3n2)cc1
3. N.N.O=C([O-])C1(C(=O)[O-])CCC1.[Pt+2]

6.34
4.85
4.69
